The measured values listed here are drawn from paper PMC11989179.

Here's a batch of compounds along with measured Ki for AmelOBP2 (Apis mellifera, UniProt A0A8U0WQ64).
OBSERVED_PROPERTY: Ki (µM)

>>> numeric_value("CCCCCCCCCCCCCCCC(=O)OCC [hexadecanoic acid, ethyl ester]")
12.8
>>> numeric_value("CC(C)(C)c1cccc(C(C)(C)C)c1 [1,3-bis (1,1-dimethyl ethyl)-benzene]")
2.85
>>> numeric_value("CCCCCCCCCCCCCCCCCCCCCCCC [tetracosane]")
13.2

* * *

tested on: Apis mellifera ligustica antennae; assay: Electroantennogram (EAG) response to compounds under RNAi silencing; assay type: in vivo; design: concentration or dose not given beside the values; settings: decrease of EAG response in honeybees fed siAmelOBP2
Consider the following compounds and their measured Silencing Efficiency (EAG response) readings.
OBSERVED_PROPERTY: Silencing Efficiency (EAG response) (%)

>>> numeric_value("CCCCC/C=C/C=O")
55.20
>>> numeric_value("CCCCCCCCC=O")
37.28
>>> numeric_value("Cc1ccccc1")
28.76
>>> numeric_value("CCC/C=C/C=O")
34.64
>>> numeric_value("C=C(C)C1CCC(C)C(=O)C1 (centres unmarked)")
32.48
